Here, each record is paired with measured pIC50 data.
System: HT-29
test-protocol: Cytotoxicity against human HT29 cells after 48 hrs by SRB assay
Type: functional, cell-based
reported-conditions: Homo sapiens, HT-29, 48 h
pIC50: −log10 of the molar value.
reported-metric: pIC50

- smiles-string: "CC[C@@H](C)[C@@H](NC(=O)[C@H](CCCN)NC(=O)[C@H]1CCCN1C(=O)[C@H](NC(=O)[C@@H](NC(=O)[C@@H](NC(=O)[C@H](NC(=O)CCCC(C)C)C(C)C)[C@@H](C)O)C(C)C)C(C)C)C(=O)N[C@H]1C(=O)N[C@H]([C@H](C)CC)C(=O)N[C@H](C(C)C)C(=O)N[C@@H](Cc2ccccc2)C(=O)N[C@H]([C@@H](C)O)C(=O)N[C@@H](C(C)C)C(=O)O[C@H]1C"
  reported-metric: "pIC50"
  endpoint-result: 5.07
- smiles-string: "C/C=C1\\NC(=O)[C@H](Cc2ccccc2)NC(=O)[C@@H](C(C)C)NC(=O)[C@@H]([C@H](C)CC)NC(=O)[C@H](NC(=O)[C@H](NC(=O)CCCC(C)C)[C@H](C)CC)[C@H](C)OC(=O)[C@H](C(C)C)NC1=O"
  reported-metric: "pIC50"
  endpoint-result: 4.94
- smiles-string: "C/C=C1\\NC(=O)[C@H](Cc2ccccc2)NC(=O)[C@@H](C(C)C)NC(=O)[C@@H]([C@H](C)CC)NC(=O)[C@H](NC(=O)[C@H](NC(=O)[C@H]2CCCN2C(=O)[C@H](NC(=O)[C@@H](NC(=O)[C@@H](NC(=O)[C@H](NC(=O)CCCC(C)C)C(C)C)[C@@H](C)O)C(C)C)C(C)C)[C@H](C)CC)[C@H](C)OC(=O)[C@H](C(C)C)NC1=O"
  reported-metric: "pIC50"
  endpoint-result: 5.44
- smiles-string: "C/C=C1\\NC(=O)[C@H](Cc2ccccc2)NC(=O)[C@@H](C(C)C)NC(=O)[C@@H]([C@H](C)CC)NC(=O)[C@H](NC(=O)[C@H](NC(=O)[C@H](CCCN)NC(=O)[C@H]2CCCN2C(=O)[C@H](NC(=O)[C@@H](NC(=O)[C@@H](NC(=O)[C@H](NC(=O)CCCN(C)C)C(C)C)[C@@H](C)O)C(C)C)C(C)C)[C@H](C)CC)[C@H](C)OC(=O)[C@H](C(C)C)NC1=O"
  reported-metric: "pIC50"
  endpoint-result: 5.17
- smiles-string: "C/C=C1\\NC(=O)[C@H](Cc2ccccc2)NC(=O)[C@@H](C(C)C)NC(=O)[C@@H]([C@H](C)CC)NC(=O)[C@H](NC(=O)[C@H](NC(=O)[C@@H](NC(=O)[C@@H](NC(=O)[C@H](NC(=O)CCCC(C)C)C(C)C)[C@@H](C)O)C(C)C)[C@H](C)CC)[C@H](C)OC(=O)[C@H](C(C)C)NC1=O"
  reported-metric: "pIC50"
  endpoint-result: 5.37
- smiles-string: "C/C=C1\\NC(=O)[C@H](Cc2ccccc2)NC(=O)[C@@H](C(C)C)NC(=O)[C@@H]([C@H](C)CC)NC(=O)[C@H](NC(=O)[C@H](NC(=O)[C@@H](NC(=O)[C@H](NC(=O)CCCC(C)C)C(C)C)[C@@H](C)O)[C@H](C)CC)[C@H](C)OC(=O)[C@H](C(C)C)NC1=O"
  reported-metric: "pIC50"
  endpoint-result: 5.03
- smiles-string: "C/C=C1\\NC(=O)[C@H](Cc2ccccc2)NC(=O)[C@@H](C(C)C)NC(=O)[C@@H]([C@H](C)CC)NC(=O)[C@H](NC(=O)[C@H](NC(=O)[C@H](CCCN)NC(=O)[C@H]2CCCN2C(=O)[C@@H](NC(=O)[C@H](NC(=O)[C@@H](NC(=O)[C@H](NC(=O)CCCC(C)C)C(C)C)[C@@H](C)O)C(C)C)C(C)C)[C@H](C)CC)[C@H](C)OC(=O)[C@H](C(C)C)NC1=O"
  reported-metric: "pIC50"
  endpoint-result: 5.47
